Exercise: for every item that follows, state its recorded inhibition at 1 µM.
Target Desc: ACE (angiotensin I converting enzyme) (Oryctolagus cuniculus, UniProt P12822)
Sequence (P12822 34-1310): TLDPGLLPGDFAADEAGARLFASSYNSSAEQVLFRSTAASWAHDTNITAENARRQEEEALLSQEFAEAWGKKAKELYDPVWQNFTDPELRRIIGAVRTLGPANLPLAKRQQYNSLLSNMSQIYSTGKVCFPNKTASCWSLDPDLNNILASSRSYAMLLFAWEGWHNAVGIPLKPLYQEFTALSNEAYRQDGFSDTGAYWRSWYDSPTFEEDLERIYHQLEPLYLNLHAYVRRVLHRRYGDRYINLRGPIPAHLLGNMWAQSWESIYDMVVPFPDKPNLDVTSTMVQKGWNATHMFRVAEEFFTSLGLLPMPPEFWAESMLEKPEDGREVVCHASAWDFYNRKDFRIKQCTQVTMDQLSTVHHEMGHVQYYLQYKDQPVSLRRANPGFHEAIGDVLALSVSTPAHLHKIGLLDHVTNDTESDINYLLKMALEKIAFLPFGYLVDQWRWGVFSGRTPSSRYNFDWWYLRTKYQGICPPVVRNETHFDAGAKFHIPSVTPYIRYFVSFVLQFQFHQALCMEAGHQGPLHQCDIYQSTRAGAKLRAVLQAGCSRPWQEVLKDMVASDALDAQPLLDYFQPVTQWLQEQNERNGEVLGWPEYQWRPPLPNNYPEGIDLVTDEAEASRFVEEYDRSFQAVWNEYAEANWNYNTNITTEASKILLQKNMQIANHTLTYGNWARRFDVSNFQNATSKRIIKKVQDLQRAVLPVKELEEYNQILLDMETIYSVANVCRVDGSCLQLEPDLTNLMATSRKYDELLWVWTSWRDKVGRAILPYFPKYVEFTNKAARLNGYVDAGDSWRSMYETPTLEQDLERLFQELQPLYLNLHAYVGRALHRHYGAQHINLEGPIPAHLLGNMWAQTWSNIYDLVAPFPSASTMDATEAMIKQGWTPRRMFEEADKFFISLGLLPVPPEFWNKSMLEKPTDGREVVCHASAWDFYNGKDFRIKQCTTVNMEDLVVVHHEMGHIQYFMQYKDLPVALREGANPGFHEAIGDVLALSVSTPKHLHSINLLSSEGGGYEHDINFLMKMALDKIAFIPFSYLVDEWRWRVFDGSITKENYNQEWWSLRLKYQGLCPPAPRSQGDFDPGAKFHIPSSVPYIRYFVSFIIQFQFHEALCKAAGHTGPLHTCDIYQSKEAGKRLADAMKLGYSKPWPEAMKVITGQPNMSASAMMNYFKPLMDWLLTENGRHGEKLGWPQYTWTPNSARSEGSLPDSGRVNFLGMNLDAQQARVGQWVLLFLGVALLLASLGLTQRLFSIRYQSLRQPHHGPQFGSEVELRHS
Protocol Notes: Inhibition of angiotensin I converting enzyme (HHL substrate, modified Cushman method)
Assay type: biochemical
Test Context: Concentration 1 μM, 37°C, one hour, read-out: Inhibitory Activity on ACE (%)
Numbers only, in %.

Could you report inhibition at 1 µM for every entry in the following list?
1. COc1cc2c(cc1OC)C(N(CC(=O)O)C(=O)C(C)CS)CC2 (stereo not shown) [Example 45]
2. CC(=O)SCC(C)C(=O)N(CC(=O)O)C1CCc2ccccc2C1 (stereo not shown) [Example 32]
3. CC(=O)SCC(C)C(=O)N(CC(=O)O)C1CCc2cc(O)ccc21 (stereo not shown) [Example 6]
4. CC(=O)SCCC(=O)N(CC(=O)O)C1Cc2ccccc2C1 [Example 40]

Result block:
74
73
45
77

Attribution: patent EP0035868A1
